Parameter: PBM binding z-score. Scope: all listed entries.
- System: PPARg:RXRa 270nM:90nM, anti-RXR (NR concentration 270 nM, RXRa partner concentration 90 nM)
- ASSAY_OVERVIEW: PBM binding z-score (relative to random genomic background probes); higher = stronger binding; sequences stand for … in GC…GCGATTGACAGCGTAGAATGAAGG
Give only the figure.

Below, 3 sequences whose answers are already recorded.
- QUERY_SEQUENCE: "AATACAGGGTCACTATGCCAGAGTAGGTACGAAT"
  PBM binding z-score: 4.87
- QUERY_SEQUENCE: "ACAGACAGGTGAGTGAAGGTATCTCAGCTGGACG"
  PBM binding z-score: -0.119
- QUERY_SEQUENCE: "CCTACTGGGCTAAGGTCATTGATCAGTCAAAGCA"
  PBM binding z-score: 4.28

Looking up `CGAACTAGGTCAAGTACAGTGAATCTCCGCACGC` , I see its PBM binding z-score listed as 6.29

Looking up `CAGTCTAGGTCAGGGCCAGTATAGGAGGAACGTT` , I see its PBM binding z-score listed as 2.85

Looking up `ACAGACAGGTGAGTGAAGGTAACTCAGCTGGACG` , I see its PBM binding z-score listed as 0.0476

Looking up `TTTGCTAGGTCAGTTGGTCAGCTAACGAGCTGCC` , I see its PBM binding z-score listed as 1.77

Looking up `TGAATGAGGTTAAAGATCACGGAACGTGGCGTCG` , I see its PBM binding z-score listed as 7.16

Looking up `TCTTGTAGATCGACAGGAGGTTAAGAAAGATCGA` , I see its PBM binding z-score listed as 1.14

Looking up `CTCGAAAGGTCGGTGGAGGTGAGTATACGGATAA` , I see its PBM binding z-score listed as 1.22

Looking up `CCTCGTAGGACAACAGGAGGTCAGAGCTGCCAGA` , I see its PBM binding z-score listed as 0.644

###

- Tested on: RARg:RXRa (NR concentration 270 nM, RXRa partner concentration 90 nM)
- ASSAY_OVERVIEW: PBM binding z-score (relative to random genomic background probes); higher = stronger binding; sequences stand for … in GC…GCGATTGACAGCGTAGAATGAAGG
Rule: PBM binding z-score under 3 gives n, otherwise y.

- QUERY_SEQUENCE: "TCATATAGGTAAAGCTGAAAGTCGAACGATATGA"
  QUALITATIVE_LABEL: "n"
- QUERY_SEQUENCE: "ATATGTAGGTTATCGGGTCATTCGGTTTGCGCAT"
  QUALITATIVE_LABEL: "y"
- QUERY_SEQUENCE: "GCTTGAAGATCAAGGTTAAGAAAGACTAAGCTAA"
  QUALITATIVE_LABEL: "n"
- QUERY_SEQUENCE: "TTACCAAGTTGAAAGGTCGTTGATGCACGCCTTG"
  QUALITATIVE_LABEL: "n"
- QUERY_SEQUENCE: "TAGCCTAGGTCAGATCGGGCCAGTATGCGCTATA"
  QUALITATIVE_LABEL: "n"
- QUERY_SEQUENCE: "CAAACTAGGTCTAGAGGTCAAAGTCCGCTTCCCG"
  QUALITATIVE_LABEL: "y"
- QUERY_SEQUENCE: "GCAGACAGGTGAAACGCAGGTAATTCAGGGTGGC"
  QUALITATIVE_LABEL: "n"
- QUERY_SEQUENCE: "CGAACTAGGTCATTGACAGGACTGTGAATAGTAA"
  QUALITATIVE_LABEL: "y"

Data request: Tell me whether PBM binding z-score is at least 3 here: `ATCGAAAGGTCGAAGGTGAGTATCCCCACCCGAA`
Data returned: y

Data request: Tell me whether PBM binding z-score is at least 3 here: `GCTCGGAGGACAAGGTCAGAACTTTGTCCGTAGA`
Data returned: y

Data request: Tell me whether PBM binding z-score is at least 3 here: `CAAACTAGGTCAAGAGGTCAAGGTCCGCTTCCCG`
Data returned: y

Data request: Tell me whether PBM binding z-score is at least 3 here: `ACTTACGGGTGAACGAGGTTATAGCACGCGTATA`
Data returned: n

Taken from the supplement of paper PMC6555819.
